# condition.summary: in p-xylene, 321.15 K
attribute.measured: solubility (mole fraction)
Answers are plain numbers.

So for COc1cc([N+](=O)[O-])c(OC)cc1Cl , the logged solubility (mole fraction) turned out to be 0.0396

----------
# condition.summary: in m-xylene, 292.85 K
attribute.measured: solubility (mole fraction)
Give bare numbers.

So for COc1cc(Cl)c(OC)cc1N , the logged solubility (mole fraction) turned out to be 0.0103

----------
# condition.summary: in ethanol, 289.55 K
attribute.measured: solubility (mole fraction)

So for COc1cc(Cl)c(OC)cc1N , the logged solubility (mole fraction) turned out to be 0.00447

----------
# condition.summary: in o-xylene, 309.45 K
attribute.measured: solubility (mole fraction)
Give bare numbers.

So for COc1cc([N+](=O)[O-])c(OC)cc1Cl , the logged solubility (mole fraction) turned out to be 0.0283
